Assay: in vivo
Type: in vivo
Details: mouse, in vivo; LD50, up and down method, into tail venae (intravenous), SLC-DDY male mice 25 to 35 g; read-out: Acute toxicity (LD50)
property.measured: LD50 (mg/kg)
Entry rule: numbers only, all in mg/kg.

What does the data say about its LD50? Entry: C=C(c1ccccc1OCC(O)CNC(C)C)n1cnc(C(=O)OCC)c1C (stereo not shown) [Example 17]
36.4

---

System: SLC-DDY male mice
Assay: in vivo
Assay type: in vivo
Conditions: LD50, up and down method, into tail venae (intravenous), SLC-DDY male mice 25 to 35 g
Description: Lethal dose was obtained by administering a test compound in the form of a physiological brine solution into the tail venae of SLC-DDY male mice weighing from 25 to 35 g and calculating the value of LD50 by the up and down method [Brownlee, K. A. et al.: J. Am. Stat. As., 48, 262 (1953)].
property.measured: Acute toxicity (LD50)
Report the figure along with its unit, number first.

C=C(c1ccccc1OCC(O)CNC(C)(C)C)n1cccn1 (centres unmarked) [Example 25]
22.3 mg/kg

What does the data say about its Acute toxicity (LD50)? Entry: C=C(c1c(C)ccc(Cl)c1OCC(O)CNC(C)C)n1ccnc1 (centres unmarked) [Example 30]
28.5 mg/kg
